assay: Protein binding in rat; assay type: ADME; conditions: plasma, read-out: PB (converted)
PROPERTY_NAME: fraction unbound

> print(dat)
                         structure.notation  observed.measurement
1  COC(=O)Nc1ccc2c(c1)NC(=O)[C@H](C)CCC[C@H](NC(=O)c1ncn(-c3cccc(Cl)c3F)c1C)c1cc-2ccn1.O=C(O)C(F)(F)F.O=C(O)C(F)(F)F                 0.026
2  COC(=O)Nc1ccc2c(c1)NC(=O)[C@H](C)CCC[C@H](NC(=O)c1nnn(-c3cccc(Cl)c3F)c1C)c1cc-2ccn1.O=C(O)C(F)(F)F                 0.052
3  COC(=O)Nc1ccc2c(c1)NC(=O)[C@H](C)CCC[C@H](NC(=O)c1cnn(-c3cccc(Cl)c3F)c1C)c1cc-2ccn1.O=C(O)C(F)(F)F                 0.033
4  COC(=O)Nc1ccc2c(c1)NC(=O)CCCC[C@H](NC(=O)/C=C/c1cc(Cl)ccc1-n1cnnn1)c1nc-2c[nH]1                 0.016
